Target: TAS1R2/TAS1R3 (Homo sapiens, UniProt Q7RTX0+Q8TE23)
Sequence (Q8TE23 20-839): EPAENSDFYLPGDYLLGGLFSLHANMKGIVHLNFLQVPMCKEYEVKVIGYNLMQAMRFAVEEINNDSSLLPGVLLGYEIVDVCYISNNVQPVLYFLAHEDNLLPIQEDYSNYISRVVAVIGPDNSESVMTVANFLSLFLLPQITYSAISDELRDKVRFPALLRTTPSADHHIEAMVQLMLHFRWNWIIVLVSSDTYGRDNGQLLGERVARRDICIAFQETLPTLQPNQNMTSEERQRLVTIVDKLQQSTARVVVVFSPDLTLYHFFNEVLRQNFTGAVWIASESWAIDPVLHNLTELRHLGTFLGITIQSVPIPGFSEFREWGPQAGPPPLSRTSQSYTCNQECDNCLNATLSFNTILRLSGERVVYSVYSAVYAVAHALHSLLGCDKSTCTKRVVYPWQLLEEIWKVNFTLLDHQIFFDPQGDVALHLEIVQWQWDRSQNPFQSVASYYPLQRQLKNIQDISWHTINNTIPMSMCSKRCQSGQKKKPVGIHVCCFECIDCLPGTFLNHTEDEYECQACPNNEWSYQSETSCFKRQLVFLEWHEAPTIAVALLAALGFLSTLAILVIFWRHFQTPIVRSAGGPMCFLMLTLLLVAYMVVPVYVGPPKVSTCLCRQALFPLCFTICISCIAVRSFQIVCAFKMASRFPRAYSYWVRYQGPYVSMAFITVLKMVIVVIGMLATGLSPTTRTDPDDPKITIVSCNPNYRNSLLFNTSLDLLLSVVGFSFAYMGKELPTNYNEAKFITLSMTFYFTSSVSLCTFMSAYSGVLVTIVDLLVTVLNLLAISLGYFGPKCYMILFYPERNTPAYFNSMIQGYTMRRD
Sequence (Q7RTX0 21-852): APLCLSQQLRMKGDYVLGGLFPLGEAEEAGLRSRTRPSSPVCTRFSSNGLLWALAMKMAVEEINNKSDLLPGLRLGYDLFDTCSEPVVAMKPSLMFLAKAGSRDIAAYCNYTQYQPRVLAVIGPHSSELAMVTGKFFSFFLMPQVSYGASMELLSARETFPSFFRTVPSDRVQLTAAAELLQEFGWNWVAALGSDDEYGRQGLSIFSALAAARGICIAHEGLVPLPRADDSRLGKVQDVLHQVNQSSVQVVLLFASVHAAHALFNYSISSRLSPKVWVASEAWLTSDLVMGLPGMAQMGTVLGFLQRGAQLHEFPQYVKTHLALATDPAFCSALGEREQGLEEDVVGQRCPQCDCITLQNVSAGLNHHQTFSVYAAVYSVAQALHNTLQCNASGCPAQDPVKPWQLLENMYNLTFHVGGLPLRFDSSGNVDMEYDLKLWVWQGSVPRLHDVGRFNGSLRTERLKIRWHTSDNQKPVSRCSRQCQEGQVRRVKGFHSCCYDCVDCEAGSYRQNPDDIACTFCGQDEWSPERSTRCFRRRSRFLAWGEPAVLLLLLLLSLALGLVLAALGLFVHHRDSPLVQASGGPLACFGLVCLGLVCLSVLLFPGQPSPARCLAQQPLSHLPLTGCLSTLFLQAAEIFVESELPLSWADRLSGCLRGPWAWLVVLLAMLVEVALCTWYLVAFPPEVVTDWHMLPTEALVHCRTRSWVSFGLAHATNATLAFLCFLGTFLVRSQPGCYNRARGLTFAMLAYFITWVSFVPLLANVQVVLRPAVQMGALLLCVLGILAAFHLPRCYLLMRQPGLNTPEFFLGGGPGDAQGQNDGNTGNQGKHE
Assay: Calcium mobilization assay, HEK293T-Gα16gust44 cells expressing the sweet taste receptor
Conditions: neotame in the presence of D-allulose 0 mM
pEC50: −log10 of the molar value.
QUANTITY_KIND: pEC50

| CHEMICAL_SMILES | TARGET_DESC | VALUE_REPORTED |
| --- | --- | --- |
| COC(=O)[C@H](Cc1ccccc1)NC(=O)[C@H](CC(=O)O)NCCC(C)(C)C | TAS1R2/TAS1R3 (Homo sapiens, UniProt Q7RTX0+Q8TE23) | 5.63 |
